- Test system: U251 CNS
- method: NCI tumour cell line growth inhibition, 48 h
Property: TGI; scope: individual molecules

[
  {
    "molecule": "CC(=O)C1=C(O)CCC1=O",
    "targetDesc": "U251 CNS",
    "TGI": "> 100 µM"
  },
  {
    "molecule": "CN1CCc2cc(N)cc3c2C1Cc1ccc2c(c1-3)OCO2 (stereo unspecified)",
    "targetDesc": "U251 CNS",
    "TGI": "> 100 µM"
  },
  {
    "molecule": "CC(C)c1cccc(C(C)C)c1NC(=O)CCC(=O)NN",
    "targetDesc": "U251 CNS",
    "TGI": "> 100 µM"
  },
  {
    "molecule": "OC(CC(O)(C(F)(F)F)C(F)(F)F)C(O)c1ccco1 (stereo unspecified)",
    "targetDesc": "U251 CNS",
    "TGI": "> 10 µM"
  },
  {
    "molecule": "N#CC1(C#N)C(c2ccccc2)C=CC(c2ccc([N+](=O)[O-])cc2)C1(C#N)C#N (stereo unspecified)",
    "targetDesc": "U251 CNS",
    "TGI": "53 µM"
  },
  {
    "molecule": "O=Nc1c(NO)ccc2nn(-c3ccccc3)nc12",
    "targetDesc": "U251 CNS",
    "TGI": "> 100 µM"
  },
  {
    "molecule": "Cc1nc2sc(C(=O)Nc3cccc(Br)c3)c(N)c2cc1C(O)c1ccccc1 (stereo unspecified)",
    "targetDesc": "U251 CNS",
    "TGI": "> 70.9 µM"
  },
  {
    "molecule": "C/C=C/C1=CN2C(=O)c3cc(OC4OC(C)C(NC)C(C)(O)C4O)c(C)c(O)c3N=C[C@@H]2C1 (stereo partly specified)",
    "targetDesc": "U251 CNS",
    "TGI": "12.5 µM"
  },
  {
    "molecule": "C#Cc1cc(CN(CC(=O)OC(C)(C)C)CC(=O)OC(C)(C)C)nc(CN(CC(=O)OC(C)(C)C)CC(=O)OC(C)(C)C)c1",
    "targetDesc": "U251 CNS",
    "TGI": "27.8 µM"
  },
  {
    "molecule": "COC(=O)C(=O)C(C(=O)OC)C(=O)C(=O)Nc1cc(Cl)c(Cl)cc1Cl (stereo unspecified)",
    "targetDesc": "U251 CNS",
    "TGI": "> 100 µM"
  },
  {
    "molecule": "CCO/C=C(\\C(=O)OC)S(=O)(=O)c1ccc(C)cc1",
    "targetDesc": "U251 CNS",
    "TGI": "> 100 µM"
  },
  {
    "molecule": "Nc1nc(-c2ccccc2)cc(-c2ccc(Cl)cc2)c1-c1nc2ccccc2o1",
    "targetDesc": "U251 CNS",
    "TGI": "21 µM"
  },
  {
    "molecule": "O=S(=O)(CCCCl)SCCCCl",
    "targetDesc": "U251 CNS",
    "TGI": "> 69.3 µM"
  },
  {
    "molecule": "COc1ccc(C2CC(=O)c3c(O)c(OC)c(OC)c(OC)c3O2)cc1O (stereo unspecified)",
    "targetDesc": "U251 CNS",
    "TGI": "> 100 µM"
  },
  {
    "molecule": "COc1ccc(C2S/C(=C\\c3ccccc3)C(=O)N2NC(=O)Cc2ccccc2)cc1 (stereo unspecified)",
    "targetDesc": "U251 CNS",
    "TGI": "> 100 µM"
  },
  {
    "molecule": "c1ccc2c(c1)[nH]c1c2ncc2[nH]c3ccccc3c21",
    "targetDesc": "U251 CNS",
    "TGI": "5.64 µM"
  },
  {
    "molecule": "CCOP(=O)(OCC)C(Nc1ccc(C(=O)O)cc1)c1ccc(C(Nc2ccc(C(=O)O)cc2)P(=O)(OCC)OCC)cc1 (stereo unspecified)",
    "targetDesc": "U251 CNS",
    "TGI": "> 100 µM"
  },
  {
    "molecule": "CC(C)N1[C@@H]2CCCC[C@H]2N(C(C)C)P1(=O)C(=O)/C=C/c1ccccc1",
    "targetDesc": "U251 CNS",
    "TGI": "16.5 µM"
  },
  {
    "molecule": "O=C(O)C1=NN(c2ccc(S(=O)(=O)O)cc2)C2(C1)SCC(=O)N2c1nc2ccccc2s1 (stereo unspecified)",
    "targetDesc": "U251 CNS",
    "TGI": "> 100 µM"
  },
  {
    "molecule": "COc1ccc(C2C(C=O)C(N3CCN(C)CC3)=Nc3nc4ccccc4n32)cc1 (stereo unspecified)",
    "targetDesc": "U251 CNS",
    "TGI": "39.3 µM"
  },
  {
    "molecule": "CCN(CC)CCCCC1CCN(CC(=O)N2c3cc(Cl)ccc3NC(=O)CC2C)CC1 (stereo unspecified)",
    "targetDesc": "U251 CNS",
    "TGI": "> 100 µM"
  }
]

* * *

- Tested on: MCF7 breast
- method: NCI tumour cell line growth inhibition, 48 h
Quick list: TGI per entry.

[
  {
    "compound": "O=C1COCCN1C(=O)c1ccccc1Cl",
    "TGI": "> 100 µM"
  },
  {
    "compound": "COc1cc(C)c(NC(=O)CN(C)C)cc1Nc1nc(Nc2cccc(F)c2C(N)=O)c2cc[nH]c2n1",
    "TGI": "2.9 µM"
  },
  {
    "compound": "Cn1c(=N)n[n+]([O-])c2ccccc21",
    "TGI": "5.32 µM"
  },
  {
    "compound": "C=CCC1C(=O)Nc2cccc3ncn(c23)C1=O (stereo not given)",
    "TGI": "> 100 µM"
  },
  {
    "compound": "CC(C)(C)c1cc(-c2nc3c(F)c(F)c(F)c(F)c3[nH]2)cc(C(C)(C)C)c1O",
    "TGI": "> 100 µM"
  },
  {
    "compound": "CCOC(=O)c1cc2cc(C)cc(C(=O)c3ccc([N+](=O)[O-])cc3)c2[nH]1",
    "TGI": "> 100 µM"
  },
  {
    "compound": "Cc1nnc2n1N=C(c1cc(F)c(Cl)cc1Cl)/C(=C/c1ccc3c(c1)OCO3)S2",
    "TGI": "> 100 µM"
  },
  {
    "compound": "Cc1ccc(S(=O)(=O)Nn2c(O)c(C#N)c(-c3ccc(N(C)C)cc3)c(C#N)c2=O)cc1",
    "TGI": "> 50 µM"
  },
  {
    "compound": "O=C(OCc1ccccc1)N1CCCc2c(n(S(=O)(=O)c3ccccc3)c3ccccc23)C1",
    "TGI": "> 100 µM"
  },
  {
    "compound": "COc1cc2c(cc1OC)C(=O)/C(=C/c1ccc([N+](=O)[O-])cc1)CC2",
    "TGI": "> 10 µM"
  }
]

* * *

Endpoint: GI50. System: NCI-H460 lung. Items follow.

[
  {
    "querySmiles": "O=C(NCCCCCCNC(=O)OCc1ccc2c(Cl)cc(Cl)c(O)c2n1)OCc1ccc2c(Cl)cc(Cl)c(O)c2n1",
    "targetDesc": "NCI-H460 lung",
    "GI50": "1230 nM"
  },
  {
    "querySmiles": "CN1CCN(CC(=O)N2c3cccc4cccc(c34)N(C(=O)CN3CCN(C)CC3)C2c2cn(-c3ccccc3)nc2-c2cccc([N+](=O)[O-])c2)CC1",
    "targetDesc": "NCI-H460 lung",
    "GI50": "2230 nM"
  },
  {
    "querySmiles": "COc1ccc2c(c1)C(=O)c1c-2c(NCCN(C)C)nc2ccccc12",
    "targetDesc": "NCI-H460 lung",
    "GI50": "671 nM"
  },
  {
    "querySmiles": "C[CH2][Sn]([CH2]C)([O]C(=O)c1ccc(F)cc1)[O][Sn]([CH2]C)([CH2]C)[O]C(=O)c1ccc(F)cc1",
    "targetDesc": "NCI-H460 lung",
    "GI50": "> 100000 nM"
  },
  {
    "querySmiles": "Cc1cc2nc(C(Cl)Cl)nc(-c3ccccc3)n2n1",
    "targetDesc": "NCI-H460 lung",
    "GI50": "1970 nM"
  }
]
